Values from patent US20240409645A1

Biological target: T1, mouse IL-2Rα (mouse) (UniProt P01590)
T1 sequence (looked up): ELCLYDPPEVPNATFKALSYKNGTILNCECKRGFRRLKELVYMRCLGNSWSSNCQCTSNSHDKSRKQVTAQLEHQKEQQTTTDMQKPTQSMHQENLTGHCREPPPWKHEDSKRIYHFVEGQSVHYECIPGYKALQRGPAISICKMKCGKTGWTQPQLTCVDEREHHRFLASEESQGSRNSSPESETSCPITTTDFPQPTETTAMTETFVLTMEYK
Assay: ELISA, P.E. on coated antigen
Collected OD (PE binding ELISA) values appear next to each entry.
endpoint: OD (PE binding ELISA)

INSERT INTO assay_data (binder, measurement) VALUES
  ('07-MP01G08 (VHH) VHH: EVQLVESGGGLVQAGGSLRLSCAASGRAFSMYNMGWFRQAPGKEREFVAATGWSGANTPYADSVKGRFTISRDNTQNTVYLQMNSLKPEDTATYYCAADSIRLRSDVTRIPLEYDYWGQGTQVTVSS', '0.046 OD450 nm'),
  ('FJ1427_P035MP01E04 (VHH) VHH: QVQLVESGGGLVQAGDSLRLSCAVSGRSFRNYILAWYRQAPGKEREFLAAISWLDGTFYANSVEGRFTISRDNPKNTVHLQMDGLKPEDTAVYYCAADRGPVRPVLAPDVDYWGQGTQVTVAS', '0.046 OD450 nm');
